experiment: Ratio of drug level in brain to plasma in Wistar rat at 3 mg/kg, ip measured after 60 mins by LC-MS/MS analysis; format: ADME, organism-based; conditions: read-out: BPR
The reader will find reported Kp at 1 h values listed item by item below.

entry smiles	Kp at 1 h
O=S(=O)(c1cccc2cnccc12)N1CCC[C@H]1CCN1CCN(c2nsc3ccccc23)CC1	0.17
O=S(=O)(c1cncc2ccccc12)N1CCC[C@@H]1CCN1CCN(c2nsc3ccccc23)CC1	1
O=S(=O)(c1cncc2ccccc12)N1CCC[C@H]1CCN1CCN(c2nsc3ccccc23)CC1	0.96
O=S(=O)(c1cncc2ccccc12)N1CCC[C@H]1CCN1CCN(c2cccc3sccc23)CC1	2.13
O=S(=O)(c1cncc2ccccc12)N1CCC[C@@H]1CCN1CCN(c2cccc3sccc23)CC1	1.24
O=S(=O)(c1cccc2cnccc12)N1CCC[C@@H]1CCN1CCN(c2nsc3ccccc23)CC1	0.45
